Hey, just so you know, these numbers are from the supplement of paper PMC5998384.

Test system: HeLa Kyoto;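 further: synchronized HeLa Kyoto cells, proteins quantified by TMT10plex mass spectrometry, three biological replicates, mitosis taken 0.5 h after nocodazole release, G1/S directly after double thymidine block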
Test: thermal stability score vs G1/S (z-score of summed log2 fold changes over temperatures); higher = more thermally stable than in G1/S
Settings: cell cycle stage: mitosis

{"macromoleculeSequence": "MDGTRTSLDIEEYSDTEVQKNQVLTLEEWQDKWVNGKTAFHQEQGHQLLKKHLDTFLKGKSGLRVFFPLCGKAVEMKWFADRGHSVVGVEISELGIQEFFTEQNLSYSEEPITEIPGTKVFKSSSGNISLYCCSIFDLPRTNIGKFDMIWDRGALVAINPGDRKCYADTMFSLLGKKFQYLLCVLSYDPTKHPGPPFYVPHAEIERLFGKICNIRCLEKVDAFEERHKSWGIDCLFEKLYLLTEK [TPMT]", "testedTarget": "HeLa Kyoto", "thermal stability score": -0.417}
{"macromoleculeSequence": "MSSPSPGKRRMDTDVVKLIESKHEVTILGGLNEFVVKFYGPQGTPYEGGVWKVRVDLPDKYPFKSPSIGFMNKIFHPNIDEASGTVCLDVINQTWTALYDLTNIFESFLPQLLAYPNPIDPLNGDAAAMYLHRPEEYKQKIKEYIQKYATEEALKEQEEGTGDSSSESSMSDFSEDEAQDMEL [UBE2H]", "testedTarget": "HeLa Kyoto", "thermal stability score": 0.877}
{"macromoleculeSequence": "MAPRRVRSFLRGLPALLLLLLFLGPWPAASHGGKYSREKNQPKPSPKRESGEEFRMEKLNQLWEKAQRLHLPPVRLAELHADLKIQERDELAWKKLKLDGLDEDGEKEARLIRNLNVILAKYGLDGKKDARQVTSNSLSGTQEDGLDDPRLEKLWHKAKTSGKFSGEELDKLWREFLHHKEKVHEYNVLLETLSRTEEIHENVISPSDLSDIKGSVLHSRHTELKEKLRSINQGLDRLRRVSHQGYSTEAEFEEPRVIDLWDLAQSANLTDKELEAFREELKHFEAKIEKHNHYQKQLEIAHEKLRHAESVGDGERVSRSREKHALLEGRTKELGYTVKKHLQDLSGRISRARHNEL [LRPAP1]", "testedTarget": "HeLa Kyoto", "thermal stability score": -0.375}
{"macromoleculeSequence": "MKLGRAVLGLLLLAPSVVQAVEPISLGLALAGVLTGYIYPRLYCLFAECCGQKRSLSREALQKDLDDNLFGQHLAKKIILNAVFGFINNPKPKKPLTLSLHGWTGTGKNFVSKIIAENIYEGGLNSDYVHLFVATLHFPHASNITLYKDQLQLWIRGNVSACARSIFIFDEMDKMHAGLIDAIKPFLDYYDLVDGVSYQKAMFIFLSNAGAERITDVALDFWRSGKQREDIKLKDIEHALSVSVFNNKNSGFWHSSLIDRNLIDYFVPFLPLEYKHLKMCIRVEMQSRGYEIDEDIVSRVAEEMTFFPKEERVFSDKGCKTVFTKLDYYYDD [TOR1A]", "testedTarget": "HeLa Kyoto", "thermal stability score": 4.06}
{"macromoleculeSequence": "MLAARLVCLRTLPSRVFHPAFTKASPVVKNSITKNQWLLTPSREYATKTRIGIRRGRTGQELKEAALEPSMEKIFKIDQMGRWFVAGGAAVGLGALCYYGLGLSNEIGAIEKAVIWPQYVKDRIHSTYMYLAGSIGLTALSAIAISRTPVLMNFMMRGSWVTIGVTFAAMVGAGMLVRSIPYDQSPGPKHLAWLLHSGVMGAVVAPLTILGGPLLIRAAWYTAGIVGGLSTVAMCAPSEKFLNMGAPLGVGLGLVFVSSLGSMFLPPTTVAGATLYSVAMYGGLVLFSMFLLYDTQKVIKRAEVSPMYGVQKYDPINSMLSIYMDTLNIFMRVATMLATGGNRKK [GHITM]", "testedTarget": "HeLa Kyoto", "thermal stability score": -4.77}
